Source: paper PMC6478789

- targetOrTestSystem: UHRF1 (Homo sapiens, UniProt Q96T88)
- Sequence (Q96T88 126-285 limits assumed): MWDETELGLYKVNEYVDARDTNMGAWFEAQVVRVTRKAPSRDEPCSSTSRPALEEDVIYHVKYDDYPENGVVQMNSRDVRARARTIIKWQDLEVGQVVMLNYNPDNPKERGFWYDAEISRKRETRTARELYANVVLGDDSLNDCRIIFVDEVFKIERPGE
- assayExplanation: Temperature shift assay (non-BRD reader domains)
- Assay type: binding
- testConditions: 10µM compound
assayReadout: Tm (C) 10µM, temperature shift
Quote the value and follow it with the unit of measurement.

IN: Under UHRF1 (Homo sapiens, UniProt Q96T88): Tm (C) 10µM, temperature shift value of CO[C@H]1CNC[C@@H](OCC2CCC(F)(F)CC2)[C@@H]1Nc1ncc(-c2cncc(C)c2)c2cc(C)c(=O)[nH]c12 ?
OUT: -0.2 Kelvin

IN: Item: CN(C)CCCOc1ccc(-c2cc(NCCCn3cccn3)nc(S(C)(=O)=O)n2)cc1
OUT: 0.0 Kelvin

IN: Consider next the molecule COc1cc(Cl)c(C(=O)N[C@@H](CN[C@H]2CC[C@@H](N)CC2)Cc2ccc(C#N)cc2)cc1-c1ccc(CN[C@H](C)c2ccc(C)cc2)o1 in the same way.
OUT: -0.3 Kelvin

IN: // repeat for Cc1c(NC(=O)c2cc(C(N)=O)nc3cc(F)ccc23)c(C(F)(F)F)nn1Cc1ccc(C(C)(C)C)cc1 and report
OUT: -0.4 Kelvin

IN: Next entry: CCC(=O)N1CCOc2c(cc(-c3ccc(OC)c(OC)c3)cc2OCC2CCCN(C)C2)C1 (stereo not shown)
OUT: 0.0 Kelvin

IN: Can you check Cc1c(NC(=O)c2cc(C(N)=O)nc3cc(F)ccc23)c(C(F)(F)F)nn1Cc1ccc(C#N)cc1 next?
OUT: -0.2 Kelvin

IN: Now the molecule CN1C[C@H](Nc2cnn(C)c(=O)c2Br)C[C@H](c2ccccc2)C1
OUT: -0.2 Kelvin

* * *

- targetOrTestSystem: BRD3(1) (Homo sapiens)
- Sequence (Q15059 34-140 limits assumed): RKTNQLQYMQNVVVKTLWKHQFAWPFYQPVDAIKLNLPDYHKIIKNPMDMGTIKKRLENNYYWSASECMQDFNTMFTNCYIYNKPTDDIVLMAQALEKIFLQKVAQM
- assayExplanation: BROMOscan ligand-binding assay
- testConditions: BRD3(1)
assayReadout: pKd
Convention used: pKd is expressed as -log10 of the molar concentration.

IN: I am curious: what pKd value has been reported for COc1cc2c(cc1NS(=O)(=O)c1ccc(Br)cc1C)n(C)c(=O)n2C ?
OUT: 5.26

IN: // query: COc1cc(C#N)ccc1S(=O)(=O)Nc1ccc2c(c1)cc(C)c(=O)n2C
OUT: 5.14

* * *

Field: Kd. Provide a value for each of the compounds that follow.
- targetOrTestSystem: PBRM1(2) (Homo sapiens)
- Sequence (Q86U86 177-287 limits assumed): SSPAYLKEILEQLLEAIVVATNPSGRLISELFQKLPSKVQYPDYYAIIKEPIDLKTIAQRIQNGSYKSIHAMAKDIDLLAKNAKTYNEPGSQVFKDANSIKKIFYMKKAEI
- assayExplanation: BROMOscan ligand-binding assay
- testConditions: PBRM1(2)

IN: For the compound shown here, COc1cc(C#N)ccc1S(=O)(=O)Nc1ccc2c(c1)cc(C)c(=O)n2C , give the reported Kd.
OUT: > 50 µM

IN: Try this compound too: COc1cc2c(cc1NS(=O)(=O)c1ccc(Br)cc1C)n(C)c(=O)n2C
OUT: > 50 µM

* * *

- targetOrTestSystem: BRD2(2) (Homo sapiens)
- Sequence (P25440 344-453 limits assumed): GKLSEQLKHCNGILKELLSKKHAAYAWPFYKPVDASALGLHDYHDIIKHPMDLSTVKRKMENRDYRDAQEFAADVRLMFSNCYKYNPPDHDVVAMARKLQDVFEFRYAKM
- assayExplanation: BROMOscan ligand-binding assay
- testConditions: read-out: KD (BROMOscan); sheet prints no unit (nM)
assayReadout: Kd

IN: Endpoint output: Kd of COc1cc(C#N)ccc1S(=O)(=O)Nc1ccc2c(c1)cc(C)c(=O)n2C [NIC57] . Value?
OUT: > 30000 nM

* * *

- targetOrTestSystem: SMARCA4 (Homo sapiens)
- Sequence (P51532 1453-1564 limits assumed): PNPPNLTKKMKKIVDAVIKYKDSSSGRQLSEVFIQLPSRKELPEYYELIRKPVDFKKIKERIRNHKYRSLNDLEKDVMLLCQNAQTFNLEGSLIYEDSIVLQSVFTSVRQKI
- assayExplanation: BROMOscan ligand-binding assay
- testConditions: SMARCA4
Please go through the items and note down their Kd.
State the answer as a number, implicitly in µM.

IN: Form field - read-out: Kd; system: SMARCA4 (Homo sapiens); submitted item: COc1cc(C#N)ccc1S(=O)(=O)Nc1ccc2c(c1)cc(C)c(=O)n2C [NI 57]
OUT: 41

IN: Also COc1cc2c(cc1NS(=O)(=O)c1ccc(Br)cc1C)n(C)c(=O)n2C [OF-1] , if possible.
OUT: 16

* * *

- targetOrTestSystem: BRD9 (Homo sapiens)
- Sequence (Q9H8M2 136-240 limits assumed): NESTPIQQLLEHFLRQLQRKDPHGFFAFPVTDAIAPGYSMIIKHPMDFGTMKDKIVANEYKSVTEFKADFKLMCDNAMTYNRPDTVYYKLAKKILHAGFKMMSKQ
- assayExplanation: BROMOscan ligand-binding assay
- testConditions: KD, BROMOscan, BRD9
assayReadout: Kd (µM)
State the answer as a number, implicitly in µM.

IN: Endpoint output: Kd of COc1ccc(CCc2nc3cc(-c4c(C)noc4C)ccc3n2C[C@H](C)N2CCOCC2)cc1Cl . Value?
OUT: 6.1

* * *

- targetOrTestSystem: BRD3(1,2) (Homo sapiens, UniProt Q15059)
- Sequence (Q15059 24-416 limits assumed): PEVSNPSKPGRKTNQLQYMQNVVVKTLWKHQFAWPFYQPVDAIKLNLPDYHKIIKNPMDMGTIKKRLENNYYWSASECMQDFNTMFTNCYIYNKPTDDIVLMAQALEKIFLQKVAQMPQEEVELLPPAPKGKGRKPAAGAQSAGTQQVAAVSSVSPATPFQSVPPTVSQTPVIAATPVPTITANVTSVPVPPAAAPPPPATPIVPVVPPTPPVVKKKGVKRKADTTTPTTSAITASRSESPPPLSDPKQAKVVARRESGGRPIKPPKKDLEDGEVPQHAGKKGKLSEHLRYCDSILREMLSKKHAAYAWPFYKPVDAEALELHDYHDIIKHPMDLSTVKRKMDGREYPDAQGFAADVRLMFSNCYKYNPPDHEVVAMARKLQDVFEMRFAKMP
- assayExplanation: BROMOscan ligand-binding assay
- testConditions: BRD3(1,2)
What Kd was measured for each of the following?
In your response, put the unit directly after the numeric value.

IN: Fill blank: measured Kd of the compound COc1cc2c(cc1NS(=O)(=O)c1ccc(Br)cc1C)n(C)c(=O)n2C [OF-1] is ____.
OUT: 4.9 µM

IN: Could you do the same for COc1cc(C#N)ccc1S(=O)(=O)Nc1ccc2c(c1)cc(C)c(=O)n2C [NI 57] , please?
OUT: 12 µM

* * *

- targetOrTestSystem: BAZ1B (Homo sapiens)
- Sequence (Q9UIG0 1339-1443 limits assumed): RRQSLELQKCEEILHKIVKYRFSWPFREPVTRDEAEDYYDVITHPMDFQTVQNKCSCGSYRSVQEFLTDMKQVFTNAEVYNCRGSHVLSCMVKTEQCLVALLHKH
- assayExplanation: BROMOscan ligand-binding assay
- testConditions: KD, BAZ1B
So I've got a bunch of compounds here, and I need their Kd values.

IN: Need Kd of O=C(O)c1ccccc1O [Salicylic Acid] , thanks.
OUT: > 14 mM

IN: Queued: O=C(C=CN1CC2CC1CN2c1ccccn1)c1ccccc1O (centres unmarked) [PFI-3]
OUT: > 0.1 mM

* * *

- targetOrTestSystem: BRPF1 (Homo sapiens, UniProt P55201)
- Sequence (P55201 1085-1168 limits assumed, species assumed): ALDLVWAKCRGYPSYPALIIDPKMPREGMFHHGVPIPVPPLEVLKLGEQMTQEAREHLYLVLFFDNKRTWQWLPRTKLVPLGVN
- assayExplanation: Temperature shift assay (non-BRD reader domains)
- Format: binding
- testConditions: 10µM compound
assayReadout: Tm (C) 10µM, temperature shift (Kelvin)
Numbers only; they are read as Kelvin.

IN: Form field: reported Tm (C) 10µM, temperature shift of CN1C[C@H](Nc2cnn(C)c(=O)c2Br)C[C@H](c2ccccc2)C1
OUT: -0.8

IN: Subsequent entry: Cc1nnc2c3ccccc3c(N[C@@H](C)[C@H](c3ccccc3)N(C)C)nn12
OUT: -2.7

IN: Can you check Cc1cc2c(cc1N1C(=O)c3cccc4c(CCCO)ccc(c34)C1=O)n(C)c(=O)n2C next?
OUT: -2.5

IN: And CN(C)CCCOc1ccc(-c2cc(NCCCn3cccn3)nc(S(C)(=O)=O)n2)cc1 ?
OUT: -0.3

IN: Next molecule up: CO[C@H]1CNC[C@@H](OCC2CCC(F)(F)CC2)[C@@H]1Nc1ncc(-c2cncc(C)c2)c2cc(C)c(=O)[nH]c12
OUT: -0.2

IN: // same read-out, input: CCC(=O)N1CCOc2c(cc(-c3ccc(OC)c(OC)c3)cc2OCC2CCCN(C)C2)C1 (stereo not drawn)
OUT: -0.2

IN: Check COc1cc(Cl)c(C(=O)N[C@@H](CN[C@H]2CC[C@@H](N)CC2)Cc2ccc(C#N)cc2)cc1-c1ccc(CN[C@H](C)c2ccc(C)cc2)o1 too.
OUT: -2.2

IN: Likewise for Cc1c(NC(=O)c2cc(C(N)=O)nc3cc(F)ccc23)c(C(F)(F)F)nn1Cc1ccc(C#N)cc1 ?
OUT: -0.3

IN: Okay, and Cc1c(NC(=O)c2cc(C(N)=O)nc3cc(F)ccc23)c(C(F)(F)F)nn1Cc1ccc(C(C)(C)C)cc1 ?
OUT: -0.2

* * *

- targetOrTestSystem: CREBBP (Homo sapiens)
- Sequence (Q92793 1085-1192 limits assumed): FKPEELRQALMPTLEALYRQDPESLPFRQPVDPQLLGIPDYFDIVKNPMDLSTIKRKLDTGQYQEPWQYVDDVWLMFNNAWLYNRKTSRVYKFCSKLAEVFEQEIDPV
- assayExplanation: BROMOscan ligand-binding assay
- testConditions: KD (BROMOscan), sheet prints no unit (nM)
assayReadout: Kd

IN: Please look up its Kd: O=C(C=CN1CC2CC1CN2c1ccccn1)c1ccccc1O (stereo not shown) [PFI-3]
OUT: > 30000 nM

* * *

- targetOrTestSystem: TRIM33(PHD,BRD) (Homo sapiens, UniProt Q9UPN9)
- Sequence (Q9UPN9 882-1087 limits assumed): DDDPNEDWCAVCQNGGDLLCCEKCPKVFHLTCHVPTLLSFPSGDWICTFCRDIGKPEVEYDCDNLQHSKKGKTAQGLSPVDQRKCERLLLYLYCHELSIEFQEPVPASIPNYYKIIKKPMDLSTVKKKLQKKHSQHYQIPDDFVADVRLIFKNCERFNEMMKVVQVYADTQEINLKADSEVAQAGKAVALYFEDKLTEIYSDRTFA
- assayExplanation: BROMOscan ligand-binding assay
- testConditions: BROMOscan Gene Symbol TRIM33(PHD,Bromo.)
pKd: −log10 of the molar value.
assayReadout: pKd

IN: What pKd value was documented for this molecule, Cc1noc(C)c1-c1ccc2c(c1)nc(CCc1ccccc1)n2CCN1CCOCC1 ?
OUT: < 4.30

IN: Follow-up entry: COc1ccc(CCc2nc3cc(-c4c(C)noc4C)ccc3n2CCN2CCOCC2)cc1
OUT: < 4.30

* * *

- targetOrTestSystem: PCAF (Homo sapiens)
- Sequence (Q92831 723-827 limits assumed): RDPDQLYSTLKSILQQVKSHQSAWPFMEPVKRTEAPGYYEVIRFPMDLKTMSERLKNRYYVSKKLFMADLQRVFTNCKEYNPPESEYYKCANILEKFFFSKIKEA
- assayExplanation: BROMOscan ligand-binding assay
- testConditions: KD, BROMOscan, PCAF
assayReadout: Kd

IN: Using the record for COc1ccc(CCc2nc3cc(-c4c(C)noc4C)ccc3n2C[C@H](C)N2CCOCC2)cc1Cl , report its Kd.
OUT: > 100 µM
